- Test system: WHIM2 (cells of a triple-negative basal-like breast cancer xenograft)
- assayProcedure: cell viability (% of vehicle); higher = less cytotoxic
- conditionParameters: 10 µM; 72 h
In this section we review reported cell viability values for a set of molecules.
Lab note: record just the number, no unit beside it.

Examples with answers:
molecule	cell viability
CC(NCc1ccc(OCc2cccc(F)c2)cc1)C(N)=O.CS(=O)(=O)O (configuration not stated) [Safinamide Mesylate]	184
CCN(CC)CCNC(=O)c1ccc(N)cc1.Cl [Procainamide HCl]	110

Short answer for CN(C(=O)CN(CCO)CC(=O)N(C)C(C)(C)Cc1ccccc1)C(C)(C)Cc1ccccc1 : cell viability was 43.2

According to the records, this molecule CCC(C)C(=O)OC1CC(C)C=C2C=CC(C)C(CCC3CC(O)CC(=O)O3)C21 (configuration not stated) displays cell viability of 71.5

The reported cell viability of the molecule NC1CCCCC1N.O=C([O-])C(=O)[O-].[Pt+2] (configuration not stated) was 108

Kindly note the recorded cell viability for CS(=O)(=O)CCNCc1ccc(-c2ccc3ncnc(Nc4ccc(OCc5cccc(F)c5)c(Cl)c4)c3c2)o1.Cc1ccc(S(=O)(=O)O)cc1.Cc1ccc(S(=O)(=O)O)cc1 [Lapatinib Ditosylate] , which is 37.7

# cell viability of Cl.Cl.Fc1ccc(C(c2ccc(F)cc2)N2CCN(CC=Cc3ccccc3)CC2)cc1 [Flunarizine 2HCl] = 38.9

###

- Test system: HCI09 (cells of a triple-negative luminal androgen receptor type breast cancer xenograft)
- assayProcedure: cell viability (% of vehicle); higher = less cytotoxic
- conditionParameters: 10 µM; 72 h
Counter-ions that a name gives are not always drawn.
Each entry below lists one item and its recorded cell viability value.

Answered examples (4):
compound	measuredTarget	cell viability
Nc1ccn([C@@H]2O[C@H](CO)[C@@H](O)C2(F)F)c(=O)n1 [Gemcitabine HCl]	HCI09	93
OCC1OC(Oc2ccc(O)cc2)C(O)C(O)C1O (stereo not given)	HCI09	100
Cn1nnc2c(C(N)=O)ncn2c1=O [Temozolomide]	HCI09	105
CN1C(C(=O)Nc2ccccn2)=C(O)c2ccccc2S1(=O)=O	HCI09	53.8

Lab note: next compound to report on.
So for O=C(O)CC(O)CC(O)C=Cc1c(C2CC2)nc2ccccc2c1-c1ccc(F)cc1 (stereo not given) , the logged cell viability turned out to be 102

###

- Test system: WHIM30 (cells of a triple-negative basal-like breast cancer xenograft)
- assayProcedure: cell viability of combination (% of vehicle); higher = less cytotoxic
- conditionParameters: 1 µM; 72 h; partner dose: 10 nM
Readings of cell viability of combination for the listed compounds

compound	result
CCc1oc2ccccc2c1C(=O)c1cc(Br)c(O)c(Br)c1 [Benzbromarone] + CC(C)C[C@H](NC(=O)[C@H](CCc1ccccc1)NC(=O)CN1CCOCC1)C(=O)N[C@@H](Cc1ccccc1)C(=O)N[C@@H](CC(C)C)C(=O)[C@@]1(C)CO1 [Carfilzomib]	20.1
C=C1C(=CC=C2CCCC3(C)C2CCC3C(C)C=CC(C)C(C)C)CC(O)CC1O (configuration not stated) [Doxercalciferol] + CC(C)C[C@H](NC(=O)[C@H](CCc1ccccc1)NC(=O)CN1CCOCC1)C(=O)N[C@@H](Cc1ccccc1)C(=O)N[C@@H](CC(C)C)C(=O)[C@@]1(C)CO1 [Carfilzomib]	17
O=C(C=Cn1cnc(-c2cc(C(F)(F)F)cc(C(F)(F)F)c2)n1)NNc1cnccn1 + CC(C)C[C@H](NC(=O)[C@H](CCc1ccccc1)NC(=O)CN1CCOCC1)C(=O)N[C@@H](Cc1ccccc1)C(=O)N[C@@H](CC(C)C)C(=O)[C@@]1(C)CO1 [Carfilzomib]	5.58
CS(=O)(=O)O.Cc1c(O)cccc1C(=O)NC(CSc1ccccc1)C(O)CN1CC2CCCCC2CC1C(=O)NC(C)(C)C (configuration not stated) [Nelfinavir Mesylate] + CC(C)C[C@H](NC(=O)[C@H](CCc1ccccc1)NC(=O)CN1CCOCC1)C(=O)N[C@@H](Cc1ccccc1)C(=O)N[C@@H](CC(C)C)C(=O)[C@@]1(C)CO1 [Carfilzomib]	26.7
Cl.Cl.Fc1ccc(C(c2ccc(F)cc2)N2CCN(CC=Cc3ccccc3)CC2)cc1 [Flunarizine 2HCl] + CC(C)C[C@H](NC(=O)[C@H](CCc1ccccc1)NC(=O)CN1CCOCC1)C(=O)N[C@@H](Cc1ccccc1)C(=O)N[C@@H](CC(C)C)C(=O)[C@@]1(C)CO1 [Carfilzomib]	15
COc1cc(Nc2c(C#N)cnc3cc(OCCCN4CCN(C)CC4)c(OC)cc23)c(Cl)cc1Cl [Bosutinib (SKI-606)] + CC(C)C[C@H](NC(=O)[C@H](CCc1ccccc1)NC(=O)CN1CCOCC1)C(=O)N[C@@H](Cc1ccccc1)C(=O)N[C@@H](CC(C)C)C(=O)[C@@]1(C)CO1 [Carfilzomib]	20.9

We now examine a further compound.
Looking up CC(O)C(=O)O.CCOc1ccc2nc3cc(N)ccc3c(N)c2c1.O [Ethacridine lactate monohydrate] + CC(C)C[C@H](NC(=O)[C@H](CCc1ccccc1)NC(=O)CN1CCOCC1)C(=O)N[C@@H](Cc1ccccc1)C(=O)N[C@@H](CC(C)C)C(=O)[C@@]1(C)CO1 [Carfilzomib] , I found its cell viability of combination recorded as 15.2
